Test system: HCT-15 colon
Experiment: NCI tumour cell line growth inhibition, 48 h
Record form. Attribute: TGI. Fill in for each entry.

Under HCT-15 colon: TGI value of CCSc1nc(SCC)c2cn[nH]c2n1 ?
> 100 µM

Under HCT-15 colon: TGI value of COc1ccc(NS(=O)(=O)c2ccc(NC(NC(=O)CC(C)C)(C(F)(F)F)C(F)(F)F)cc2)nn1 ?
> 100 µM

Under HCT-15 colon: TGI value of NNC(=O)CSc1nc2ccccc2c(=O)n1N ?
> 100 µM

----------
Test system: HCT-116 colon
Test: NCI tumour cell line growth inhibition, 48 h
Parameter Measured: TGI

Under HCT-116 colon: TGI value of CCC(=O)ONC(=O)Cn1ccc([N+](=O)[O-])n1 ?
> 100 µM

Under HCT-116 colon: TGI value of COc1ccc2nc(NC(=O)C(=O)C(C#N)c3ccc([N+](=O)[O-])cc3)sc2c1 (stereo not given) ?
> 100 µM

Under HCT-116 colon: TGI value of CC(C)NC(=O)OCCN=c1c2ccccc2ccc2ccccc12 ?
> 100 µM

Under HCT-116 colon: TGI value of C[N+]12CCCCC1C(CN1C(=O)Cc3c4ccccc4c(c4ccccc34)CC1=O)CCC2 (stereo not given) ?
> 100 µM

Under HCT-116 colon: TGI value of CC(=O)OCC1OC(n2c3c(cc(C#N)c2=S)CCCCC3)C(OC(C)=O)C(OC(C)=O)C1OC(C)=O (stereo not given) ?
> 100 µM
